Overview of reported change in vivo at 50 mg/kg across a group of compounds:
assay: APCC in vivo screen: blood cholesterol in male Sprague-Dawley rats on high fat, high cholesterol diet with 0.5% cholic acid; settings: Rattus norvegicus, single dose 50 mg/kg (*), high fat high cholesterol diet overnight, read-out: % Change (mg/dl) (cholesterol)
endpoint-name: change in vivo at 50 mg/kg (%)

> print(dat)
                                   compound  reported.value
1  CC(C)(C)c1cccc(C(C)(C)C)c1OC(=O)NS(=O)(=O)Nc1ccccc1 [Example 8]             -26
2  CC(C)c1cccc(C(C)C)c1NS(=O)(=O)NC(=O)Oc1c(C(C)(C)C)cccc1C(C)(C)C [Example 6]             -57
3  Cc1cc(C(C)(C)C)c(OC(=O)NS(=O)(=O)NCC(c2ccccc2)c2ccccc2)c(C(C)(C)C)c1 [Example 20]             -54
4  CC(C)(C)c1cccc(C(C)(C)C)c1OC(=O)NS(=O)(=O)N(Cc1ccccc1)Cc1ccccc1 [Example 9]              -3
5  CC(C)c1cccc(C(C)C)c1OC(=O)NS(=O)(=O)NC(c1ccccc1)c1ccccc1 [Example 17]             -46
6  CC(C)c1cccc(C(C)C)c1NS(=O)(=O)NC(=O)Oc1c(C(C)C)cccc1C(C)C [Example 16]             -65
7  CC(C)c1cccc(C(C)C)c1OC(=O)NS(=O)(=O)NCC(c1ccccc1)c1ccccc1 [Example 15]             -29
8  Cc1cc(C(C)(C)C)c(OC(=O)NS(=O)(=O)Nc2ccccc2)c(C(C)(C)C)c1 [Example 21]             -33
9  Cc1cc(C(C)(C)C)c(OC(=O)NS(=O)(=O)Nc2c(C(C)C)cccc2C(C)C)c(C(C)(C)C)c1 [Example 19]             -56
